Data origin, for the record: patent US9051311B2

- TARGET_OR_TEST_SYSTEM: Nav 1.7 (Homo sapiens (Human))
- Sequence (Q15858 whole entry): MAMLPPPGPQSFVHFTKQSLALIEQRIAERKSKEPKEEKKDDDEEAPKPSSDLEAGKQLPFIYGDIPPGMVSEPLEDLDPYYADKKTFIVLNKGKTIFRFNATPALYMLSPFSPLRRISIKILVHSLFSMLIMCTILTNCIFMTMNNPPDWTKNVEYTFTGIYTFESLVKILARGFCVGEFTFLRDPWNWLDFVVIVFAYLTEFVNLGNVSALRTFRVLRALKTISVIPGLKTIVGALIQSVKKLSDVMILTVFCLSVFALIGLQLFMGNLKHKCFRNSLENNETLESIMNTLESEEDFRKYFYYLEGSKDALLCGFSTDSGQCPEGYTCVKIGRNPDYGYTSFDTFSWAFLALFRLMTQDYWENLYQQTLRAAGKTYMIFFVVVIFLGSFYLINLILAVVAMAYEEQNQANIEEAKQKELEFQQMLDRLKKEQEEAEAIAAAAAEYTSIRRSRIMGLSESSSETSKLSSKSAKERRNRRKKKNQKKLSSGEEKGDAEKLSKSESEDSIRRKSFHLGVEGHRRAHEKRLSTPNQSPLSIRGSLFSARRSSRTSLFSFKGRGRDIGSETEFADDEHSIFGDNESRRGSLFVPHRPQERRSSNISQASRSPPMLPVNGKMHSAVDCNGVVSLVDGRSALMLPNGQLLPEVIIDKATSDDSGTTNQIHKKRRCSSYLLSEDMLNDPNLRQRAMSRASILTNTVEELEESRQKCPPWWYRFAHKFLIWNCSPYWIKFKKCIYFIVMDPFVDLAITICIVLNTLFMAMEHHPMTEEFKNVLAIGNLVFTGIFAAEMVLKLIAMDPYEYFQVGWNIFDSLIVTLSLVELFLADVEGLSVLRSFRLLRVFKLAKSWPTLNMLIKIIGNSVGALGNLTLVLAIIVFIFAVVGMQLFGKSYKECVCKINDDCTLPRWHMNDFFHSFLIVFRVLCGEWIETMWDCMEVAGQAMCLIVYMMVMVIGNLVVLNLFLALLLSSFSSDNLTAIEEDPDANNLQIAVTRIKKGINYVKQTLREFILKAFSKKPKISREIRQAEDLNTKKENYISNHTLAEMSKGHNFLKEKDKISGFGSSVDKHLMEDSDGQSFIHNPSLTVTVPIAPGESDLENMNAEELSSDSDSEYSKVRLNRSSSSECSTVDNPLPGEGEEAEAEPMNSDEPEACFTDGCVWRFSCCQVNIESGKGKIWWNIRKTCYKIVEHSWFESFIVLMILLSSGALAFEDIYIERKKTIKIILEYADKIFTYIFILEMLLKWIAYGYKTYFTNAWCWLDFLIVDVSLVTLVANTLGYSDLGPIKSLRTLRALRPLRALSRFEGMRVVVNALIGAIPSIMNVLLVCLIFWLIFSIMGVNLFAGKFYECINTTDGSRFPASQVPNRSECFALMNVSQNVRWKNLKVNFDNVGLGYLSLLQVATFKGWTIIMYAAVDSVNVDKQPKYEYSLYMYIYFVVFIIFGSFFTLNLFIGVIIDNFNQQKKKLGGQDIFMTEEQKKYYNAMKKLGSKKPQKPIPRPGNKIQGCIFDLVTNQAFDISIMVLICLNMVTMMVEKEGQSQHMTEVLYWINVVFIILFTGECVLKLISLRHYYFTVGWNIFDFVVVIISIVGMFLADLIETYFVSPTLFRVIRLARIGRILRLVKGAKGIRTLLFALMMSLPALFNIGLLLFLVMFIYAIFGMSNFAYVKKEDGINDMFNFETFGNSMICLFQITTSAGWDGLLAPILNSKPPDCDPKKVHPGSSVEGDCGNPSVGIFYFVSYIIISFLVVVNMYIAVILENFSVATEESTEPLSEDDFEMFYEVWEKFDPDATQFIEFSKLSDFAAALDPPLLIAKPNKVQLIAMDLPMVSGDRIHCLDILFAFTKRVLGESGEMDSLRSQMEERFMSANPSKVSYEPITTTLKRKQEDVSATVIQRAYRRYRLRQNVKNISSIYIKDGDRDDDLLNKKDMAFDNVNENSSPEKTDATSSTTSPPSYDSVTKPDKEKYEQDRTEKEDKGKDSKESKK
- ASSAY_PROTOCOL: Nav 1.7 IonWorks Quattro (IWQ) in vitro assay, population patch-clamp;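 note: cells held at −110 mV for 3 s, then 26 pulses of 150 ms at 5 Hz, leak-corrected peak current, percent block measured before and after compound, 3–8 min exposure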
- Assay type: cell-based
- PARTICULARS: 293 cells stably transfected with Nav 1.7; block at 26th pulse to −20 mV
Where a name gives a salt, the structure may show the parent alone.
For each of the molecules below, state its IC50.
The figure you give is taken to be in µM; do not add the unit.

Consider the molecule CN1CC=C(c2ccc(C(F)(F)F)cc2-c2cccc3c2CCN(S(=O)(=O)Nc2ncc(F)s2)C3)CC1 and give its measured IC50.
2.81

Consider the molecule CN1CC=C(c2cc(Cl)cc(F)c2-c2cccc3c2CCN(S(=O)(=O)Nc2ncc(F)s2)C3)CC1 and give its measured IC50.
14.9

Consider the molecule COc1cc(C2CC2)ccc1-c1cccc2c1CCN(S(=O)(=O)Nc1ncns1)C2 and give its measured IC50.
0.0675

Consider the molecule C[N+]1(C)CC=C(c2cc(C(F)(F)F)ccc2-c2cccc3c2CCN(S(=O)(=O)Nc2ncns2)C3)CC1 and give its measured IC50.
0.684

Consider the molecule O=S(=O)(Nc1ncns1)N1CCc2c(cccc2-c2cncc3ccccc23)C1 and give its measured IC50.
6.9

Consider the molecule CN1CCN(c2cc(C(F)(F)F)ccc2-c2cccc3c2CCN(S(=O)(=O)Nc2ncc(F)s2)C3)CC1 and give its measured IC50.
0.395

Consider the molecule COc1cc(C(F)(F)F)ccc1-c1cccc2c1CCN(S(=O)(=O)Nc1ncns1)C2 and give its measured IC50.
0.135

Consider the molecule O=S(=O)(Nc1cnccn1)N1CCc2c(cccc2-c2ccc(C(F)(F)F)cc2C2=CCNCC2)C1 [Example 53, hydrochloride] and give its measured IC50.
10.5

Consider the molecule CN1CC=C(c2cc(C(F)(F)F)ccc2-c2cccc3c2CCN(S(=O)(=O)Nc2ncns2)C3)CC1 and give its measured IC50.
0.0783

Consider the molecule CN1CC=C(c2cc(C(F)(F)F)ccc2-c2cccc3c2CCN(S(=O)(=O)Nc2ncc(F)s2)C3)CC1 and give its measured IC50.
0.24

Consider the molecule O=S(=O)(Nc1ncns1)N1CCc2c(cccc2-c2cccc3c2CCNC3)C1 [Example 13, hydrochloride] and give its measured IC50.
3.87

Consider the molecule O=S(=O)(Nc1ncns1)N1CCc2c(cccc2-c2ccc(C(F)(F)F)cc2)C1 and give its measured IC50.
1.64

Consider the molecule O=S(=O)(Nc1ncc(F)s1)N1CCc2c(cccc2-c2ccc(C(F)(F)F)cc2C2CCNCC2)C1 [Example 35, hydrochloride] and give its measured IC50.
0.315

Consider the molecule O=S(=O)(Nc1ncns1)N1CCc2c(cccc2-c2cccc3ccccc23)C1 and give its measured IC50.
2.68

Consider the molecule Cc1cncn1-c1cc(C(F)(F)F)ccc1-c1cccc2c1CCN(S(=O)(=O)Nc1ncc(F)s1)C2 and give its measured IC50.
0.171

Consider the molecule COc1cc(F)ccc1-c1cccc2c1CCN(S(=O)(=O)Nc1ncns1)C2 and give its measured IC50.
0.137

Consider the molecule O=S(=O)(Nc1ncns1)N1CCc2c(cccc2-c2cccc3[nH]ncc23)C1 and give its measured IC50.
19.1

Consider the molecule O=S(=O)(Nc1ncns1)N1CCc2c(cccc2-c2ccc(C(F)(F)F)cc2F)C1 and give its measured IC50.
1.84

Consider the molecule COc1ncccc1-c1cccc2c1CCN(S(=O)(=O)Nc1ncns1)C2 and give its measured IC50.
7.6

Consider the molecule O=S(=O)(Nc1ncns1)N1CCc2c(cccc2-c2ccc(C(F)(F)F)cc2-c2cn[nH]c2)C1 and give its measured IC50.
0.157

Consider the molecule O=S(=O)(Nc1ncns1)N1CCc2c(cccc2-c2ccc(C(F)(F)F)cc2Cl)C1 and give its measured IC50.
0.477

Consider the molecule O=S(=O)(Nc1ncns1)N1CCc2c(cccc2-c2ccc(Cl)cc2)C1 and give its measured IC50.
5.47

Consider the molecule O=S(=O)(Nc1ncc(F)s1)N1CCc2c(cccc2-c2ccc(C(F)(F)F)cc2C2=CCNCC2)C1 [Example 33, hydrochloride] and give its measured IC50.
0.351

Consider the molecule Cn1cc(-c2cc(C(F)(F)F)ccc2-c2cccc3c2CCN(S(=O)(=O)Nc2ncns2)C3)cn1 and give its measured IC50.
2.66

Consider the molecule COc1cccc(OC)c1-c1cccc2c1CCN(S(=O)(=O)Nc1ncns1)C2 and give its measured IC50.
4.67

Consider the molecule COc1ccc(-c2cccc3c2CCN(S(=O)(=O)Nc2ncns2)C3)c(OC)c1 and give its measured IC50.
1.51

Consider the molecule COc1ccc(F)cc1-c1cccc2c1CCN(S(=O)(=O)Nc1ncns1)C2 and give its measured IC50.
0.0628

Consider the molecule O=S(=O)(Nc1ncns1)N1CCc2c(cccc2-c2ccc(C(F)(F)F)cc2-c2cccnc2)C1 and give its measured IC50.
0.0805

Consider the molecule CC(C)(C)OC(=O)N1CC=C(c2cccc3c2CCN(S(=O)(=O)Nc2ncns2)C3)CC1 and give its measured IC50.
7.1

Consider the molecule O=S(=O)(Nc1ccncn1)N1CCc2c(cccc2-c2ccc(C(F)(F)F)cc2Br)C1 and give its measured IC50.
38.9

Consider the molecule O=S(=O)(Nc1ncns1)N1CCc2c(cccc2-c2ccc(C(F)(F)F)cc2C2=CCNCC2)C1 [Example 6, hydrochloride] and give its measured IC50.
0.0221
